# test_method_notes: qHTS for inhibitors of Vif-A3G interactions: Cherry picks; further: nearly all actives have a fitted effect of over 80% in size
# details: HeLa A3G-eYFP + Vif (tagged APOBEC3G with the HIV-1 protein that degrades it), 24 h; eYFP fluorescence increase; series mostly up to 36.9 µM
The whole screen tested about 2,100 compounds, of which about 650 (31%) were called active. Roughly 16% stayed inconclusive and do not appear here. The call rests on the fitted dose curve; in most records, active means well fitted inhibition curve with a large enough effect; inconclusive means small, poorly fitted or top-dose-only effect; inactive means flat fitted curve, though single readings scatter. The list shows a part of the results.
Output constraint: value belongs to Y = active, N = inactive

As a guide, the following entries are already answered.
molecule=COc1ccc(OC)c(NS(=O)(=O)c2ccc(Cl)s2)c1 qualitative_label=N
molecule=COc1cccc(/C=N/NC(=O)c2cc3c(OC)c(OC)ccc3[nH]2)c1OC qualitative_label=N
molecule=Cc1cccc(NC(=O)/C(C#N)=C/c2cn(CC(=O)NCc3ccco3)c3ccccc23)c1C qualitative_label=N
molecule="O=C(Nc1cc(Cl)cc2c1-c1ccc(Cl)cc1C2O)C(Cl)Cl (stereo unspecified)" qualitative_label=N

Request: Which result was noted for this molecule in the test: `CN1C(=S)N(c2cccnc2)C(=O)/C1=C\c1ccc(N(C)C)cc1`
Response: Y

Request: So what was the verdict on COc1cc(C2C(C#N)=C(N)Oc3cc(O)ccc32)cc2c1OCO2 (stereo unspecified) in this test?
Response: N

Request: Which result was noted for this molecule in the test: CC(=O)c1cccc(-c2ccnc3c2CC(C(=O)NCC2CC2)O3)c1 (stereo unspecified)
Response: N

Request: Could you kindly confirm the outcome this assay logged for CC1(C(=O)NCc2ccc(F)c(F)c2)Cc2c(-c3cccc(C(N)=O)c3)ccnc2O1 (stereo unspecified) ?
Response: N
